target: Bs-CspB (Bacillus subtilis, UniProt P32081 1-67); experiment: tryptophan fluorescence quenching
Criterion: Kd strictly less than 30 nM. Met: YES. Not met: NO.

Is it true that Kd reported for CTCTTCC (ssDNA) is less than 30 nM?
NO

Here is the next binder: CTCTCTC (ssDNA)
YES

Here is the next binder: CTCTTTC (ssDNA)
YES

Here is the next binder: CTTTTTC (ssDNA)
NO

Here is the next binder: CTCCTTC (ssDNA)
YES
